Reference source: patent US7238697B2

Experiment: log P determination by HPLC (reversed-phase C18), EEC Directive 79/831 Annex V.A8
Assay type: physicochemical
Conditions: reversed-phase C18 HPLC column; pH 2.3; HPLC, reversed-phase C 18, 43° C., 0.1% aqueous phosphoric acid/acetonitrile; read-out: log P (pH 2.3)
Description: The stated log P values were determined in accordance with EEC Directive 79/831 Annex V.A8 by HPLC (High Performance Liquid Chromatography) using a reversed-phase column, (C 18). Temperature: 43° C. Mobile phases for the determination in the acidic range: 0.1% aqueous phosphoric acid, acetonitrile; linear gradient from 10% acetonitrile to 90% acetonitrile. […]
Threshold check on chromatographic logP: strictly below 2 is class 1; on or above 2 is class 0.

Past entries and their recorded results:
>>> df
                                   molecule    class
0     COC(=O)C(Sc1nccc(-c2ccccn2)n1)C(=O)OC  class 0
1           CCOC(=O)CSc1nccc(-c2ncccc2CC)n1  class 0
2  CCOC(=O)C(C)OC(=O)CSc1nccc(-c2ccccn2)n1 (stereo not drawn)  class 0

--- query ---
QUERY: # strict comparison: is reported chromatographic logP < 2? input = "COC(=O)CSc1nc(-c2ccccn2)c2cc(Cl)ccc2n1"
RESULT: class 0

----------
Assay: log P determination by HPLC (reversed-phase C18), EEC Directive 79/831 Annex V.A8
Assay type: physicochemical
Details: reversed-phase C18 HPLC column; pH 2.3; HPLC, reversed-phase C 18, 43° C., 0.1% aqueous phosphoric acid/acetonitrile; read-out: log P (pH 2.3)
Reported values of chromatographic logP for individual entries
Lab note: jot the number down without any unit.

Worked set:
>>> print(df.to_string())
                                   molecule  value_reported
0         CCOC(=O)CN(CC)c1nccc(-c2ccccn2)n1            2.13
1  O=C(NCCCOC(=O)CSc1nccc(-c2ccccn2)n1)Nc1ccc(Cl)cc1Cl             3.2
2  COC(=O)c1ccc(NC(=O)CSc2nccc(-c3ccccn3)n2)cc1            2.16

QUERY: Name the recorded chromatographic logP of the molecule listed here: "Cc1cccc(CNC(=O)CSc2nccc(-c3ccccn3)n2)c1"
RESULT: 2.29

QUERY: Name the recorded chromatographic logP of the molecule listed here: "NC(=O)CCSc1nccc(-c2ccccn2)n1"
RESULT: 0.96

QUERY: Name the recorded chromatographic logP of the molecule listed here: "Cc1ccc(CCNC(=O)CSc2nccc(-c3ccccn3)n2)cc1"
RESULT: 2.56

QUERY: Name the recorded chromatographic logP of the molecule listed here: "Cc1cnn(CCOC(=O)CSc2nccc(-c3ccccn3)n2)n1"
RESULT: 1.93

QUERY: Name the recorded chromatographic logP of the molecule listed here: "O=C(CSc1nccc(-c2ccccn2)n1)OCCCN1CCCCC1"
RESULT: 1.13

QUERY: Name the recorded chromatographic logP of the molecule listed here: "CCOC(=O)CNc1nccc(-c2ccccn2)n1"
RESULT: 1.14

QUERY: Name the recorded chromatographic logP of the molecule listed here: "O=C(CSc1nccc(-c2ccccn2)n1)OCCc1noc(=O)[nH]1"
RESULT: 1.97

QUERY: Name the recorded chromatographic logP of the molecule listed here: COC(=O)C(Sc1nccc(-c2ccccn2)n1)c1ccccc1 (centres unmarked)
RESULT: 3.5

QUERY: Name the recorded chromatographic logP of the molecule listed here: "CC(C)(C)c1ccc(NC(=O)NCCOC(=O)CSc2nccc(-c3ccccn3)n2)cc1"
RESULT: 3.35

QUERY: Name the recorded chromatographic logP of the molecule listed here: "CCOC(=O)CSc1nccc(-c2ncccc2C)n1"
RESULT: 1.85

QUERY: Name the recorded chromatographic logP of the molecule listed here: "O=C(CSc1nccc(-c2ccccn2)n1)NCc1ccc2c(c1)OCO2"
RESULT: 1.94

----------
Reported values of chromatographic logP for individual entries
Experiment: log P determination by HPLC (reversed-phase C18), EEC Directive 79/831 Annex V.A8
Type: physicochemical
Conditions: reversed-phase C18 HPLC column; pH 2.3; HPLC, reversed-phase C 18, 43° C., 0.1% aqueous phosphoric acid/acetonitrile; read-out: log P (pH 2.3)
Lab note: jot the number down without any unit.

QUERY: Name the recorded chromatographic logP of the molecule listed here: "CCOC(=O)CSc1nccc(-c2ccc(Br)cn2)n1"
RESULT: 3.39

QUERY: Name the recorded chromatographic logP of the molecule listed here: "O=C(CSc1nccc(-c2ccccn2)n1)NCCc1ccc(Cl)cc1"
RESULT: 2.58

QUERY: Name the recorded chromatographic logP of the molecule listed here: "O=C(CSc1nccc(-c2ccccn2)n1)OCC(Cl)Cl"
RESULT: 2.78

----------
Assay: log P determination by HPLC (reversed-phase C18), EEC Directive 79/831 Annex V.A8
Type: physicochemical
Conditions: reversed-phase C18 HPLC column; pH 2.3; HPLC, reversed-phase C 18, 43° C., 0.1% aqueous phosphoric acid/acetonitrile; read-out: log P (pH 2.3)
Reported values of chromatographic logP for individual entries

Worked set:
In [3]: df
Out[3]:
                                molecule         readout_label  value_reported
0  CCCCCCCCCCOC(=O)CSc1nccc(-c2ccccn2)n1  chromatographic logP            6.15
1         CCCOC(=O)CSc1nccc(-c2ccccn2)n1  chromatographic logP            2.76
2            NC(=O)CSc1nccc(-c2ccccn2)n1  chromatographic logP            0.69

QUERY: Name the recorded chromatographic logP of the molecule listed here: "O=C(CSc1nccc(-c2ccccn2)n1)NCc1ccc(F)c(Cl)c1"
RESULT: 2.42

QUERY: Name the recorded chromatographic logP of the molecule listed here: "CCOC(=O)CSc1nc(C)cc(-c2ccccn2)n1"
RESULT: 2.45

QUERY: Name the recorded chromatographic logP of the molecule listed here: "COC(=O)CCCCSc1nccc(-c2ccccn2)n1"
RESULT: 2.68

QUERY: Name the recorded chromatographic logP of the molecule listed here: "CCOC(=O)CSc1nccc(-c2ccc(C(F)(F)F)cn2)n1"
RESULT: 3.48

----------
Reported values of chromatographic logP for individual entries
Assay: log P determination by HPLC (reversed-phase C18), EEC Directive 79/831 Annex V.A8
Type: physicochemical
Conditions: reversed-phase C18 HPLC column; pH 2.3; HPLC, reversed-phase C 18, 43° C., 0.1% aqueous phosphoric acid/acetonitrile; read-out: log P (pH 2.3)
Lab note: jot the number down without any unit.

QUERY: Name the recorded chromatographic logP of the molecule listed here: CCOC(=O)C(C)N(C)C(=O)CSc1nccc(-c2ccccn2)n1 (stereo not shown) [Example 310]
RESULT: 1.93

QUERY: Name the recorded chromatographic logP of the molecule listed here: O=C(CSc1nccc(-c2ccccn2)n1)OCC(F)=C(Cl)Cl [Example 253]
RESULT: 3.19

----------
Assay: log P determination by HPLC (reversed-phase C18), EEC Directive 79/831 Annex V.A8
Format: physicochemical
Conditions: reversed-phase C18 HPLC column; pH 2.3; HPLC, reversed-phase C 18, 43° C., 0.1% aqueous phosphoric acid/acetonitrile; read-out: log P (pH 2.3)
Readout label: chromatographic logP
Lab note: jot the number down without any unit.

                                   compound  value_reported
0           CCCCOC(=O)CSc1nccc(-c2ccccn2)n1            3.07
1  COC(=O)CSc1nc(-c2ccc(OC)cc2)cc(-c2ccccn2)n1             3.5
2   CC(C)/C=N/CCOC(=O)CSc1nccc(-c2ccccn2)n1            2.02
3   O=C(CSc1nccc(-c2ccccn2)n1)Nc1ccc(Cl)cc1            2.58

QUERY: Name the recorded chromatographic logP of the compound listed here: "CC(C)NC(=O)OCCOC(=O)CSc1nccc(-c2ccccn2)n1"
RESULT: 2.19

QUERY: Name the recorded chromatographic logP of the compound listed here: CC(OC(=O)CSc1nccc(-c2ccccn2)n1)C(F)(F)F (stereo not drawn)
RESULT: 3.06

QUERY: Name the recorded chromatographic logP of the compound listed here: "CCOC(=O)COc1nccc(-c2ccccn2)n1"
RESULT: 1.73

QUERY: Name the recorded chromatographic logP of the compound listed here: "O=C(CSc1nccc(-c2ccccn2)n1)OCCCN1CCCC1=O"
RESULT: 1.64

QUERY: Name the recorded chromatographic logP of the compound listed here: "O=C(CSc1nccc(-c2ccccn2)n1)NCc1cc(C(F)(F)F)cc(C(F)(F)F)c1"
RESULT: 3.22

----------
Reported values of chromatographic logP for individual entries
Test: log P determination by HPLC (reversed-phase C18), EEC Directive 79/831 Annex V.A8
Assay type: physicochemical
Settings: reversed-phase C18 HPLC column; pH 2.3; HPLC, reversed-phase C 18, 43° C., 0.1% aqueous phosphoric acid/acetonitrile; read-out: log P (pH 2.3)
Lab note: jot the number down without any unit.

QUERY: Name the recorded chromatographic logP of the molecule listed here: CS(=O)(=O)NC(=O)CSc1nccc(-c2ccccn2)n1 [Example 140]
RESULT: 1.13

QUERY: Name the recorded chromatographic logP of the molecule listed here: CC(C)(C)OC(=O)CCCOC(=O)CSc1nccc(-c2ccccn2)n1 [Example 94]
RESULT: 3.48

QUERY: Name the recorded chromatographic logP of the molecule listed here: O=C(CSc1nccc(-c2ccccn2)n1)OCCCOc1ccc(F)cc1 [Example 91]
RESULT: 3.59

QUERY: Name the recorded chromatographic logP of the molecule listed here: CCOC(=O)CSc1nccc(-c2cc(CC)ccn2)n1 [Example 259]
RESULT: 2.69
